tested on: NCI-H460 lung; experiment: NCI tumour cell line growth inhibition, 48 h
MEASURE: TGI

S=C(c1c[nH]c2ccccc12)N1CCN(c2ccccc2)CC1 = > 100 µM
CC(C)Cc1ccc(C(C)/C=C2\CCC(CN3CCCC3)C2=O)cc1 (stereo unspecified) = 37.9 µM
CCOC(=O)c1cc(=O)oc2c1N(C)c1ncccc1N2 = > 100 µM
NCC1OC(n2cnc3c(=O)[nH]c(N)nc32)C(O)C1O (stereo unspecified) = > 100 µM

[Q] Quick check: TGI on NCI-H460 lung, item COc1ccc(-c2csc(NC(=O)N3CCN(c4cc5c(cc4F)c(=O)c(C(=O)O)cn5C4CC4)CC3)n2)cc1 ?
[A] > 100 µM

[Q] Quick check: TGI on NCI-H460 lung, item CC(NC(=O)C(N)CC(=O)O)NC(=O)N1CCOCC1 (stereo unspecified) ?
[A] > 100 µM

[Q] Quick check: TGI on NCI-H460 lung, item N#Cc1nn(C2OC(COC(=O)c3ccccc3)C(OC(=O)c3ccccc3)C2OC(=O)c2ccccc2)c2nc[nH]c(=O)c12 (stereo unspecified) ?
[A] > 100 µM

[Q] Quick check: TGI on NCI-H460 lung, item COc1ccc(C[C@H]2COC(=O)[C@@H]2Cc2ccc(O)cc2)cc1OC ?
[A] > 100 µM

[Q] Quick check: TGI on NCI-H460 lung, item N#CC(N=Nc1ccccc1)c1nc2ccccc2o1 (stereo unspecified) ?
[A] > 100 µM

[Q] Quick check: TGI on NCI-H460 lung, item NCCCn1c2c(c3cc4c(cc3c1=O)OCO4)C(=O)c1ccccc1-2 ?
[A] 4.11 µM

[Q] Quick check: TGI on NCI-H460 lung, item O=C(NC1CCN(Cc2ccccc2)CC1)c1cc(C(=O)NC2CCN(Cc3ccccc3)CC2)cc(C(=O)NC2CCN(Cc3ccccc3)CC2)c1 ?
[A] 16.9 µM

[Q] Quick check: TGI on NCI-H460 lung, item CCN(CC)CCOC(=O)/C(=C/c1ccc(OC)cc1)c1cc(OC)c(OC)c(OC)c1 ?
[A] 51.2 µM

[Q] Quick check: TGI on NCI-H460 lung, item COc1ccc(-n2c3c(c4c(CN(C)C)c(O)ccc42)C(=O)c2ccccc2C3=O)cc1 ?
[A] 26.2 µM

[Q] Quick check: TGI on NCI-H460 lung, item Cc1ccc(O)c(-c2csc(NCN3CCN(CNc4nc(-c5cc(C)ccc5O)cs4)CC3)n2)c1 ?
[A] > 100 µM

[Q] Quick check: TGI on NCI-H460 lung, item O=C(O)CCSC(=O)Nc1cccc([N+](=O)[O-])c1 ?
[A] > 100 µM

[Q] Quick check: TGI on NCI-H460 lung, item Cc1cccc2c1NC(=O)[C@@]21[C@H](C(=O)c2ccccc2)[C@]2(C(=O)Nc3ccccc32)[C@H]2CCCN21 ?
[A] > 100 µM

[Q] Quick check: TGI on NCI-H460 lung, item CC(C(=O)c1ccccc1)C1(O)C(=O)Nc2ccccc21 (stereo unspecified) ?
[A] > 100 µM

[Q] Quick check: TGI on NCI-H460 lung, item O=C1CC(c2ccc[nH]2)=NN1c1ccccc1 ?
[A] > 100 µM

[Q] Quick check: TGI on NCI-H460 lung, item CN(C)CCNC1=CC(=O)c2c(O)ccc(O)c2C1=O ?
[A] 14.6 µM

[Q] Quick check: TGI on NCI-H460 lung, item C/C(=N\NS(=O)(=O)c1ccc(C)cc1)c1c(O)cc(C)oc1=O ?
[A] > 100 µM

[Q] Quick check: TGI on NCI-H460 lung, item N#CC(C(=O)CCC(=O)Nc1ccc(Cl)cc1)c1ccccc1Cl (stereo unspecified) ?
[A] > 100 µM

FYI, the data here is from PubChem BioAssay (NCI).
